# Subject of test: hCMV UL128 + UL130 + UL131A (HEK293T co-transfectant) (hCMV, UniProt P16837 1-171; P16772 1-214)
# Sequence (P16837 whole entry, chain 1 of 2): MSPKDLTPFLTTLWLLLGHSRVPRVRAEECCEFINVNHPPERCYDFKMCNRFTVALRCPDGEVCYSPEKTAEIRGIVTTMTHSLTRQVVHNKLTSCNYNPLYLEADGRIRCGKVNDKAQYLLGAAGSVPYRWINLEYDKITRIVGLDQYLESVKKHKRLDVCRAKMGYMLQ
# Sequence (P16772 whole entry, chain 2 of 2): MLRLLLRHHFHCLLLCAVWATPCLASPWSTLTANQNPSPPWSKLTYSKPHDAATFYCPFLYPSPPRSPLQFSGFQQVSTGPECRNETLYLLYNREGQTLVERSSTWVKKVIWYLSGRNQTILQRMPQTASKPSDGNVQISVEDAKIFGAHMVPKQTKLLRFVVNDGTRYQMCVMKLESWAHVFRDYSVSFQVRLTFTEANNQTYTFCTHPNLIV
# Assay details: cell-based or functional assay
Known 90% neutralization VR1814, MRC-9 of a selection of binders
Property measured: 90% neutralization VR1814, MRC-9

1. 7I13 (antibody, V domains shown, human IgG; also called 7113) VH: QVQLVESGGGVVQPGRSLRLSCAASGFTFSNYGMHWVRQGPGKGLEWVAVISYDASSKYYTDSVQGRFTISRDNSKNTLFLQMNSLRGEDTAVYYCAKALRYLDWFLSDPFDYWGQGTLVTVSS VL: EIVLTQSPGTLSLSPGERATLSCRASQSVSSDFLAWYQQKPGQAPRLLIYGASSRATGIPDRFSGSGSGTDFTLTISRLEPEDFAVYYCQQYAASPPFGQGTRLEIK : > 10 µg/mL
2. 8C15 (antibody, V domains shown, human IgG; also called 8C15-biotin) VH: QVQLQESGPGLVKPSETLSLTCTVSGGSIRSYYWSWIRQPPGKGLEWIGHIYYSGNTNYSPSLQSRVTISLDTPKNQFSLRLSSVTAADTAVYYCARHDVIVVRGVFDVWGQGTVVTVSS VL: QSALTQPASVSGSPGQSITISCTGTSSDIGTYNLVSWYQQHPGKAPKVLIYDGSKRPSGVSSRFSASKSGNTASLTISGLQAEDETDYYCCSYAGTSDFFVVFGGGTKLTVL : > 10 µg/mL
3. 7B13 (antibody, V domains shown, human IgG) VH: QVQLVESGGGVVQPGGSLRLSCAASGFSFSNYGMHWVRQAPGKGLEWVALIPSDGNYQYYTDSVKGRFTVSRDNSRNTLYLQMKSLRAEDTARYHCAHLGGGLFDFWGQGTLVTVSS VL: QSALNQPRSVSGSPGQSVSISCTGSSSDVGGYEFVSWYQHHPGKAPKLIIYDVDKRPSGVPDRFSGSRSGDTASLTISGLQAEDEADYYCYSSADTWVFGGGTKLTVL : > 10 µg/mL
